// data source = paper PMC3834827

tested.target: T1, DdrB W66A (Deinococcus radiodurans, UniProt Q9RY80 1-144, W66A)
T1 sequence: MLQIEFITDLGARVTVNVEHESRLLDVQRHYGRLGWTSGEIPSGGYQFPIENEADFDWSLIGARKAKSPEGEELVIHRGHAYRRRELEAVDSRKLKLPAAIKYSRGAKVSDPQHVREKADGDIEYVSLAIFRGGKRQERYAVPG
experimental.details: fluorescence anisotropy; per pentamer; saturating anisotropy fixed to wild-type value; FP: 20 mM Tris pH 8.0, 100 mM KCl, 200 nM DNA; EMSA: same plus 15% glycerol, 10 uM DNA; temperature not stated
details: protein: recombinant; tags: N-terminal 6His; chain copies: 5; label: 5' 6-FAM
experimental.endpoint: pKd
Bear in mind: pKd is minus log10 of a mol/L concentration; give just that figure.

query: Please give the documented pKd of TTTTTTTTTTTTTTTTTTTT (ssDNA) [20b poly dT]
result: 4.29
